Provenance of the data: patent US20110124715A1

Biological target: human type II phospholipase A2 (Homo sapiens)
Sequence (P14555 21-144): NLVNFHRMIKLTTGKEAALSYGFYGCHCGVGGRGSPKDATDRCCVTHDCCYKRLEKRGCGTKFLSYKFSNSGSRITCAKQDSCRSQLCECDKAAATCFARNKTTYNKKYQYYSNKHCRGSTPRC
Experiment: Phospholipase A2 assay, 3H-oleic acid labelled E. coli substrate
Assay type: biochemical
Details: Table 4; 1 μM
Strand notation (5' to 3'): a small letter for the sugar, then the base; units joined by * are phosphorothioate-linked, units joined directly phosphodiester-linked; [ ] holds rarer units or linkages, { } end groups; capitals alone tell only the bases. d = 2'-deoxy (DNA)
Property: % Inhibition (1 μM) (%)
Respond with the bare value in %.

Observe how each entry below is paired with its result.
3633 (dG*dT*dA*dG*dG*dG*dA*dT*dG*dG*dG*dA*dG*dT*dG*dA*dA*dG*dG*dA*dG) [compound 3633] ... 58.5
3474 (dA*dT*dA*dG*dA*dA*dG*dG*dG*dC*dT*dC*dC*dT*dG*dC*dC*dT*dG*dG*dC) [compound 3474] ... 13.3
3628 (dG*dG*dA*dG*dC*dC*dC*dT*dT*dC*dT*dA*dT*dA*dC*dC*dC*dA*dC*dC*dC) [compound 3628] ... 13.6
3697 (dA*dC*dT*dC*dT*dT*dA*dC*dC*dA*dC*dA*dG*dG*dT*dG*dA*dT*dT*dC*dT) [compound 3697] ... 39
3192 (dG*dG*dA*dA*dG*dG*dT*dT*dT*dC*dC*dA*dG*dG*dG*dA*dA*dG*dA*dG*dG) [compound 3192] ... 28.1
3476 (dG*dC*dT*dG*dG*dA*dA*dA*dT*dC*dT*dG*dC*dT*dG*dG*dA*dT*dG*dT*dC) [compound 3476] ... 43.4

Proceed to the following item.
Exercise: What value of % Inhibition (1 μM) has been reported for the following substance? 3470 (dG*dT*dA*dG*dG*dG*dA*dG*dG*dG*dA*dG*dG*dG*dT*dA*dT*dG*dA*dG*dA) [compound 3470]
Solution: 88.9
